Entry source: patent US20260193326A1

Recorded koff by entry
Target: T1, AAV5 (adeno-associated virus 5)
T1 construct: also called adeno-associated virus serotype 5
Experiment: SPR, AAV amine-coupled to CM5 chip;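 also: nanobodies flowed as analyte at seven concentrations spanning 1–100 nM over immobilized AAV (500–800 RU), kinetic constants derived by fitting the binding curves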
quantity: koff (s⁻¹)

>>> endpoint_value("A4-056 (VHH) VHH: VQLQESGGGLVQPGGSLRLSCAASGSAFSINTMGWYRQAPGKQREKVAAVTRGGSTNYADSVKGRFTISRDNAKNTVYLQMNSLRPEDTAVYYCHVDEVRQSSWTTSNLWGQGTQVTVSS")
0.00648
>>> endpoint_value("A4-083 (VHH) VHH: VQLQESGGGLVQTGGSLKLSCAASGSRFSLNTMGWYRQAPRKQREFVAAVTRGGNTNYGDFVKGRFTISRDNAKNTVYLQMNSLRPEDTAVYYCHVDELRESSWTTSNLWGQGTQVTVSS")
0.00287
